target entity: T1, human WISE (human, UniProt Q6X4U4 24-206)
T1 construct: Recombinant, made in E. coli or mammalian cells; biotinylated in the ELISAs, amine-coupled to CM5 in Biacore; also called huWise; huWISE
T1 sequence: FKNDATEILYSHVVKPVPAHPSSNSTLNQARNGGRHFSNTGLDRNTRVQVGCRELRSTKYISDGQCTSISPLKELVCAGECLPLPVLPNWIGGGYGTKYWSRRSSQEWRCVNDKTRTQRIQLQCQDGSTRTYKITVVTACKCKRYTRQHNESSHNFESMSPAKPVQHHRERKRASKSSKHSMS
procedure details: assay not specified (IgG2 from transient transfection)

[
  {
    "binder": "light chain of SEQ ID NO: 114 paired with the heavy chain of SEQ ID NO: 24 (antibody, human IgG2, kappa, V domains shown) VH: QVQLVQSGAEVKKPGSSVKVSCKASGGTFSSTYISWVRQAPGQGLEWMGWIYAGTGGTRYNRKFTGRVTITADESTSTAYMELSSLRSEDTAVYYCAREGVDGWFTYWGQGTLVTVSS VL: NIQMTQSPGTLSLSPGERATLSCRASQSVTGNHLAWYQQKPGQAPRVLMYDTSSRATGIPDRFSGSGSGTDFTLTISSLQPEDIATYYCQQFDNLPYTFGQGTKLEIKR",
    "binding result": "binds"
  },
  {
    "binder": "Ab-60 (antibody, human IgG2, lambda, V domains shown, Phage-derived human light chain with the humanized Ab-C IgG2 heavy chain) VH: QVQLVQSGAEVKKPGSSVKVSCKASGGTFSSTYISWVRQAPGQGLEWMGWIYAGTGGTRYNRKFTGRVTITADESTSTAYMELSSLRSEDTAVYYCAREGVDGWFTYWGQGTLVTVSS VL: QSVVTQPPAVSGAPGQRITISCTGSSSNIGAGYDVHWYQQFPGTAPKVLIFANDYRPSGVPDRFSASKSATSASLAIRGLQSEDEADYYCQSYDNRLSGYVFGTGTKVTVLG",
    "binding result": "binds"
  },
  {
    "binder": "Ab-65 (antibody, human IgG2, lambda, V domains shown, Phage-derived human light chain with the humanized Ab-C IgG2 heavy chain) VH: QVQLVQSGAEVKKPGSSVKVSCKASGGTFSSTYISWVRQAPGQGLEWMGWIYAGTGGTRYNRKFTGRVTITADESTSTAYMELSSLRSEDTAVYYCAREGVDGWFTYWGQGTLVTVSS VL: QSVLTQPPSVSGAPGQRVTISCTGSSSNIGAGYDVHWYQQLPRTAPKLLIYGDTNRPSGVPDRFSGSKSGTSASLAITGLQTEDEADYYCQSYDSSLRAYVFGTGTKVTVLG",
    "binding result": "binds"
  }
]
